biological target: SV2A (Macaca mulatta, UniProt H9EQH8); test: PET imaging studies in rhesus monkeys; details: Frontal cortex; from VT, centrum semiovale as reference region
Sequence (H9EQH8 1-742): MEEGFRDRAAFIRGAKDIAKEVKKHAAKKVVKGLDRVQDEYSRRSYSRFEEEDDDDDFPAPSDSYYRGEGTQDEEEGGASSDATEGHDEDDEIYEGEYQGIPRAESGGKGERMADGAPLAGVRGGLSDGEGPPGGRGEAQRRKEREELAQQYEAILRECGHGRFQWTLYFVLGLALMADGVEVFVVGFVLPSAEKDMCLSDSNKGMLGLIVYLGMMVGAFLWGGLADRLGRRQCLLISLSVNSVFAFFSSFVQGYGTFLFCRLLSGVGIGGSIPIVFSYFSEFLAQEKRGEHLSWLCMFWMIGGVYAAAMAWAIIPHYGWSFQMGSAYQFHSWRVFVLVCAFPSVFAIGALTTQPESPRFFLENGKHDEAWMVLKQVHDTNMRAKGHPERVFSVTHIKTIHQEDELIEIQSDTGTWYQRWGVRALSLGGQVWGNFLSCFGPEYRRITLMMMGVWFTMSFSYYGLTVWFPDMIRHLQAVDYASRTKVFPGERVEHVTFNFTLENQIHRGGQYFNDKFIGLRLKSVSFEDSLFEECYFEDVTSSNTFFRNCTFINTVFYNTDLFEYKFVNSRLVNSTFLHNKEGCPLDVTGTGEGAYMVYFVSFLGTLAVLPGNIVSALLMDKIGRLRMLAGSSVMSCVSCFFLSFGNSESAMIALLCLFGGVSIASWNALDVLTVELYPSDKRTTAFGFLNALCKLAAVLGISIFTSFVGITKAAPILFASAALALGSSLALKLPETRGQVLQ
Listing of recorded Binding potential (BPND) by entry.

compound	target	Binding potential (BPND)
Cc1cnccc1CN1CC(c2cc(F)c(F)c(F)c2)CC1=O (stereo not shown) [^18F-3]	SV2A (Macaca mulatta, UniProt H9EQH8)	3.90
O=C1CC(c2cc(F)c(F)c(F)c2)CN1Cc1ccncc1F (stereo not shown) [^18F-10]	SV2A (Macaca mulatta, UniProt H9EQH8)	0.46
Cc1cnccc1CN1CC(c2cc(F)cc(F)c2)CC1=O (stereo not shown) [^18F-5]	SV2A (Macaca mulatta, UniProt H9EQH8)	4.26
O=C1CC(c2cccc(F)c2)CN1Cc1ccncc1 (stereo not shown) [^18F-12]	SV2A (Macaca mulatta, UniProt H9EQH8)	1.28
Cc1cnccc1CN1CC(c2cc(F)c(F)c(F)c2)CC1=O (single isomer, unassigned) [^11C-3]	SV2A (Macaca mulatta, UniProt H9EQH8)	3.18
Cc1cnccc1CN1CC(c2ccc(F)c(F)c2)CC1=O (stereo not shown) [^18F-4]	SV2A (Macaca mulatta, UniProt H9EQH8)	2.51
Cc1cnccc1CN1CC(c2cccc(F)c2)CC1=O (stereo not shown) [^18F-11]	SV2A (Macaca mulatta, UniProt H9EQH8)	3.29

---

Reported Binding potential (BPND) values follow for various compounds
target: SV2A (Macaca mulatta); experiment: PET imaging studies in rhesus monkeys; settings: Nucleus accumbens; from VT, centrum semiovale as reference region

compound	Binding potential (BPND)
O=C1CC(c2cccc(F)c2)CN1Cc1ccncc1 (stereo not shown) [^18F-12]	1.18
Cc1cnccc1CN1CC(c2cccc(F)c2)CC1=O (stereo not shown) [^18F-11]	3.12
Cc1cnccc1CN1CC(c2cc(F)c(F)c(F)c2)CC1=O (single isomer, unassigned) [^11C-3]	3.04
Cc1cnccc1CN1CC(c2cc(F)c(F)c(F)c2)CC1=O (stereo not shown) [^18F-3]	3.85
Cc1cnccc1CN1CC(c2cc(F)cc(F)c2)CC1=O (stereo not shown) [^18F-5]	3.09
O=C1CC(c2cc(F)c(F)c(F)c2)CN1Cc1ccncc1F (stereo not shown) [^18F-10]	0.43
Cc1cnccc1CN1CC(c2ccc(F)c(F)c2)CC1=O (stereo not shown) [^18F-4]	2.47

---

molecular target: SV2A (Rattus norvegicus (Rat)); settings: rat brain homogenates; radioligand (R)-11C-3 or (R)-18F-11; 37° C., 30 min
Sequence (Q02563 whole entry): as the sequence (H9EQH8 1-742) above, with D53E, S62A, S64G, T71A, E144D, A154T, G440S, S482A, M634L counted along it
result_type: IC50 (nM)

molecule	test_value
O=C1C[C@H](c2cccc(F)c2)CN1Cc1ccncc1 (single isomer, unassigned) [(R)-12]	26.8
Cc1cnccc1CN1C[C@H](c2cc(F)cc(F)c2)CC1=O (single isomer, unassigned) [(S)-5]	698
Cc1cnccc1CN1C[C@@H](c2cc(F)cc(F)c2)CC1=O (single isomer, unassigned) [Compound (R)-5]	3.52
Cc1cnccc1CN1C[C@H](c2ccc(F)c(F)c2)CC1=O (single isomer, unassigned) [(S)-4]	57
Cc1cnccc1CN1C[C@H](c2cc(F)c(F)c(F)c2)CC1=O (single isomer, unassigned) [(S)-3]	75.6

---

Recorded Kp, one value per entry.
experiment: PET imaging studies in rhesus monkeys; settings: rhesus monkey, in vivo, Distribution volume (VT), Frontal cortex; 1T model

compound	Kp
Cc1cnccc1CN1CC(c2cccc(F)c2)CC1=O (stereo not drawn) [^18F-11]	17.4
O=C1CC(c2cc(F)c(F)c(F)c2)CN1Cc1ccncc1F (stereo not drawn) [^18F-10]	14.7
Cc1cnccc1CN1CC(c2cc(F)cc(F)c2)CC1=O (stereo not drawn) [^18F-5]	43
